system: HT29 colon; assay: NCI-60 one-dose screen, 48 h; conditions: 10 µM unless noted
Compounds without any hit were thinned out: in the full panel of roughly 83,000, 20% have a hit. Calls of active or inactive are those of the source. Rule for the calls: active = growth percent below 10; inactive = the rest.
Classes used: label 1 for active, label 0 for inactive

>>> cat("CN(C)CCSC1=Nc2ccc(Cl)cc2C(c2ccccc2Cl)N(C)C1 (stereo unspecified)")
"label 0"
>>> cat("N#C/C(=N\\Nc1ccc(Cl)cc1)C(=O)C1CC1")
"label 0"
>>> cat("CCCCCCCCCCCC[n+]1ccc(CCCCCCCCC)cc1")
"label 1"
>>> cat("CN1CCC(CN2c3ccccc3Sc3ccccc32)C1 (stereo unspecified)")
"label 0"
>>> cat("Oc1ccc2ccccc2c1N=Nc1ccccn1")
"label 0"
>>> cat("CCN(CC)c1ccc(/C=C\\C(=O)c2ccc(NC(C)=O)cc2)cc1")
"label 0"

====

system: SK-MEL-5 melanoma; test: NCI-60 one-dose screen, 48 h (100 = growth as untreated, 0 = no growth, -100 = all killed); conditions: 10 µM unless noted
Compounds without any hit were thinned out: in the full panel of roughly 83,000, 20% have a hit.
Use true (1) when the recorded growth is no lower than 90%; use false (0) when it is lower.

>>> cat("CC(C)c1ccc(Nc2n[nH]c(=S)s2)cc1")
"true (1)"
>>> cat("O=[N+]([O-])c1ccc(C(Br)c2ccc([N+](=O)[O-])cc2)cc1")
"false (0)"
>>> cat("Cc1cc(I)nc2ccccc12")
"true (1)"
>>> cat("Nc1cc(-c2ccccc2)ccc1O")
"true (1)"
>>> cat("COC1CC(C)C(OC)c2cc(O)cc(c2O)NC(=O)/C(C)=C/C=C\\C(C)C(OC(N)=O)/C(C)=C\\C(C)C1OC (stereo unspecified)")
"false (0)"
>>> cat("S=C1SCN(Cc2cccs2)CN1Cc1cccs1")
"true (1)"
>>> cat("Cc1cc(C)c(C#N)c(Sc2nc(C)c([N+](=O)[O-])c(C)c2C#N)n1")
"false (0)"
>>> cat("CCCc1cc(=O)oc2c3c(c4c(c12)OC(C)(C)CC4)OC(C)[C@H](C)[C@@H]3O (stereo partly specified)")
"false (0)"
>>> cat("Cc1cc(N/N=C/c2ccccn2)nc2ccccc12")
"false (0)"
>>> cat("Cc1cc(C)c([I+]c2c(C)cc(C)cc2C)c(C)c1")
"false (0)"
>>> cat("Clc1ccc(-n2ncc3c(NCCCN4CCOCC4)ncnc32)cc1")
"false (0)"

====

tested on: HCT-116 colon; experiment: NCI-60 one-dose screen, 48 h (100 = growth as untreated, 0 = no growth, -100 = all killed); conditions: 10 µM unless noted
About 83,000 compounds went through this panel and 20% of them were active in at least one assay; those are over-represented in the sample as a whole. *1 amine or outer side, *2 acyl side, *3 side chain or, on linkers, in order; H or OH if unused. Where a SMILES comes first, the peptide text is derived from it. [ ]: non-standard residue; d: D form. The star is where a group is joined. X5 = CCC(=O)CC1CC(C)CC(C(=O)[*:2])N1[*:1]; X4 = CCCCCCCCC(C)C(=O)*; Aib = CC(C)(N)C(=O)O; X6 = CC(CN(C)CCO)N*
The reader will find reported growth values listed item by item below.
observable: growth (%)

>>> value("CCCCCCCCC(C)C(=O)N1CCCC1C(=O)N1C(CC(=O)CC)CC(C)CC1C(=O)NC(C)C(=O)NC(C)(C)C(=O)NC(C)(C)C(=O)NC(C(=O)NC(C)C(=O)NC(C)(C)C(=O)NC(C)(C)C(=O)NC(C)CN(C)CCO)C(C)CC (stereo unspecified) (X4-P[X5]A[Aib][Aib]IA[Aib][Aib]-X6; configuration not given here)")
-88.8
>>> value("Nc1ccc(-c2ccc(N)c(S(=O)(=O)O)c2)cc1S(=O)(=O)O")
107
>>> value("CCCCOS(=O)(=O)c1ccccc1")
108
>>> value("OC(Cc1cc(CC(O)(C(F)(F)F)C(F)(F)F)nc(CC(O)(C(F)(F)F)C(F)(F)F)c1)(C(F)(F)F)C(F)(F)F")
3.99
>>> value("CCCCN(CCCC)CCCCCCCCCCO")
90.2
>>> value("CC(C)=C1C=C2CC[C@@H]3[C@](C)(CCC[C@@]3(C)C(=O)O)[C@H]2CC1")
107

====

test system: T-47D breast; test: NCI-60 one-dose screen, 48 h; conditions: 10 µM unless noted
This is part of a sample that, as a whole, favours compounds with a hit. Of some 83,000 tested, about 20% had one in any assay. Active and inactive are the calls of the source. The calls were made as follows: active = growth percent below 10; inactive = the rest.
Classes used: 1 for active, 0 for inactive

>>> cat("O=C1C=CC(=O)c2c(O)c(CO)c(CO)c(O)c21")
0
>>> cat("O=C(CBr)c1ccc(OC(=O)c2ccccc2)cc1")
0
>>> cat("CCNc1nnnn1CC")
0
>>> cat("CCCCCCCCCCCCSC(=N)N")
1
>>> cat("N#CC1c2ccccc2C=CN1C(=O)CCCl (stereo unspecified)")
0
>>> cat("N#CCc1cccc2ccccc12")
0
>>> cat("COC(=O)[C@]1(C)CCC[C@]2(C)c3ccc(C(C)C)cc3C(=O)[C@@H](Br)[C@@H]12")
0
>>> cat("CC1(C)CCCC2=C1C(=O)N(SC(Cl)(Cl)Cl)C2=O")
0
>>> cat("CC(C)N=C(N)/N=C(\\N)Nc1ccc2ccc3ccccc3c2c1")
1
>>> cat("Cn1c(-c2ccccc2)c(/C=C/C2=[N+](C)c3ccccc3C2(C)C)c2ccccc21")
1
>>> cat("[Cl-].[Rh+3].c1ccc(-c2ccnc3c2ccc2c(-c4ccccc4)ccnc23)cc1.c1ccc(-c2ccnc3c2ccc2c(-c4ccccc4)ccnc23)cc1.c1ccc(-c2ccnc3c2ccc2c(-c4ccccc4)ccnc23)cc1")
0

====

Test system: NCI/ADR-RES ovarian
Assay: NCI-60 one-dose screen, 48 h
Conditions: 10 µM unless noted
Procedure: Growth inhibition of the NCI/ADR-RES human […] tumor cell line is measured as a screen for anti-cancer activity. Cells are grown in 96 well plates and exposed to the test compound for 48 hours. Compounds are tested at a single concentration, which is 10^-5 M for most compounds. The reported endpoint is percent growth (GI% or GIPRCNT), where numbers from 0 - 100% represent growth inhibition, and numbers from -100% - 0 represent cell death. For example, a value of 40 represents 60% growth inhibition. […]
This is part of a sample that, as a whole, favours compounds with a hit. Of some 83,000 tested, about 20% had one in any assay. Active and inactive are the calls of the source. How the source made its calls: active means growth percent below 10; inactive means the rest. *1 amine or outer side, *2 acyl side, *3 side chain or, on linkers, in order; H or OH if unused. Where a SMILES comes first, the peptide text is derived from it. Bridges are numbered along the chain shown (N, C = ends). Roman numbers before positions name the chains, in order. [ ]: non-standard residue; d: D form. Actinocin(1to9) = Cc1c2oc3c(C)ccc(C(=O)[*:2])c3nc-2c(C(=O)[*:1])c(N)c1=O; NMeV = CN[CH](C(=O)O)C(C)C; Sar = CNCC(=O)O
Outcomes: active, inactive

>>> cat("CCCCCC[C@@H](O)C/C=C\\CCCCCCCC(=O)OCCOC")
"inactive"
>>> cat("CCCCCCCCCCCC1=NCCCN1CCCC")
"inactive"
>>> cat("COc1cccc2c1C(=O)c1c(O)c3c(c(O)c1C2=O)C[C@@](O)(C(=O)CO)C[C@@H]3OC1CC(OC(C)=O)C(OC(C)=O)C(C)O1 (stereo partly drawn)")
"active"
>>> cat("Clc1ccc(Cc2nc3ccccc3s2)cc1")
"inactive"
>>> cat("O=C1Nc2ccc(Br)cc2C1=O")
"inactive"
>>> cat("CCC(C)C1NC(=O)C(NC(=O)c2c3nc4c(C(=O)NC5C(=O)NC(C(C)CC)C(=O)N6CCCC6C(=O)N(C)CC(=O)N(C)C(C(C)C)C(=O)OC5C)ccc(C)c4oc-3c(C)c(=O)c2N)C(C)OC(=O)C(C(C)C)N(C)C(=O)CN(C)C(=O)C2CCCN2C1=O (stereo not drawn) (I: TIP[Sar][NMeV] / II: TIP[Sar][NMeV]; ester I:1-I:C, II:1-II:C; linker I:N-II:N via Actinocin(1to9); configuration not given here)")
"active"
>>> cat("O=C1c2ccccc2C(=O)c2c(O)c(Cl)cc(O)c21")
"inactive"
>>> cat("O=C(NOC(=O)c1ccccc1)c1ccccc1")
"inactive"
>>> cat("O/N=C1\\c2ccccc2-c2ccc(F)cc21")
"inactive"
>>> cat("O=C(c1ccccc1)c1ccc(O)c2ncccc12")
"active"
>>> cat("O=C(O)c1cc2c(s1)C(=O)c1sccc1C2=O")
"inactive"
>>> cat("O=S(=O)(O)c1cnccn1")
"inactive"
>>> cat("Cn1c(-c2ccccc2)c(/C=C/C2=[N+](C)c3ccccc3C2(C)C)c2ccccc21")
"inactive"
>>> cat("CCOC(=O)c1cc(CC)sc1NC(=O)CC(C)=O")
"inactive"
>>> cat("COc1cc(/C=C2\\SC(=S)N(/C=C/c3nc4ccccc4[nH]c3=O)C2=O)cc(OC)c1OC")
"inactive"
>>> cat("O=C1/C(=C/c2ccccc2)CCC/C1=C\\c1ccccc1")
"inactive"
>>> cat("O=C(Nc1cccc(C(F)(F)F)c1)Oc1ccc(Cl)c2cccnc12")
"active"
>>> cat("COc1cc(-c2ccc(-[n+]3nc(-c4ccc([N+](=O)[O-])cc4)nn3-c3ccc([N+](=O)[O-])cc3)c(OC)c2)ccc1-[n+]1nc(-c2ccc([N+](=O)[O-])cc2)nn1-c1ccc([N+](=O)[O-])cc1")
"inactive"
